Source: BindingDB's records for PubMed 37567057

- Tested System: Stimulator of interferon genes protein (Homo sapiens)
- Sequence (Q86WV6 whole entry): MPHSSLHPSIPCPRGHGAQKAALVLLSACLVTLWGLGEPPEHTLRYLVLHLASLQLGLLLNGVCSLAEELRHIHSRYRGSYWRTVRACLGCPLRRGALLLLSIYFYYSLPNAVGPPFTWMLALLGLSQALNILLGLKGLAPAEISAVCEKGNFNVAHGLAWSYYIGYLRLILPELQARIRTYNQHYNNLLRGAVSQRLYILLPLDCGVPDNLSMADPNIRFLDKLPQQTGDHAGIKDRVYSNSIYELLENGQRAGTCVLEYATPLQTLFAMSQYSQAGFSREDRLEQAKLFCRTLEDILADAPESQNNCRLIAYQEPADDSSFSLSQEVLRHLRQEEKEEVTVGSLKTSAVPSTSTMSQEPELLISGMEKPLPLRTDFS
- Assay Name: Agonist activity at STING R71H/G230A/R293Q mutant (unknown origin) expressed in digitonin -permeabilized HEK293T cells preincubated for 30 mins followed by washout and measured after 5 hrs by Bright-glo luciferase assay
Readout Type: EC50
Be sure to follow the number with its unit.

// recorded EC50 for Nc1ncnc2c1ncn2[C@@H]1O[C@@H]2C=CP(=O)(O)O[C@H]3[C@@H](F)[C@H](n4cnc5c(N)ncnc54)O[C@@H]3COP(=O)(O)O[C@H]2[C@H]1F : 100 nM

###

- Tested System: Stimulator of interferon genes protein (Homo sapiens)
- Assay Name: Agonist activity at STING G230A/R293Q mutant (unknown origin) expressed in digitonin -permeabilized HEK293T cells preincubated for 30 mins followed by washout and measured after 5 hrs by Bright-glo luciferase assay
Readout Type: EC50 (nM)
Provide only the numeric value, understood in nM.

Form: item Nc1ncnc2c1ncn2[C@@H]1O[C@@H]2C=CP(=O)(O)O[C@H]3[C@@H](F)[C@H](n4cnc5c(N)ncnc54)O[C@@H]3COP(=O)(O)O[C@H]2[C@H]1F ; test system Stimulator of interferon genes protein (Homo sapiens); EC50: 100
